- TARGET_UNDER_TEST: human GLP1-R (Homo sapiens, UniProt P43220)
- Sequence (P43220 24-463): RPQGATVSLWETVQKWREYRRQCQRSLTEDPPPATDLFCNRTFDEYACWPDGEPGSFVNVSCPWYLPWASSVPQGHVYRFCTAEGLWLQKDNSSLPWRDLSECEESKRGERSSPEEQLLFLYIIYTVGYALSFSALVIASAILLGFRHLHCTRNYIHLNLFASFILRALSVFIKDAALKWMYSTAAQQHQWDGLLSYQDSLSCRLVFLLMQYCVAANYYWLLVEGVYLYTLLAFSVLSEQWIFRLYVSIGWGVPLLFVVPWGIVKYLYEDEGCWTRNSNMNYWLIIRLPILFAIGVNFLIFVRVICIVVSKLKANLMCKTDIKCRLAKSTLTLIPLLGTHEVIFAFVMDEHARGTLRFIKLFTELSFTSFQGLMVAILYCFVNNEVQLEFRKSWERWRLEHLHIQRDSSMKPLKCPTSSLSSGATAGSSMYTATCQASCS
- PROTOCOL_DESCRIPTION: GLP1-R internalization assay in HEK293 cells
- Assay type: cell-based
- EXPERIMENTAL_CONDITIONS: normalized to maximum concentration of GLP-1 (100%)
Starred links: 1 amine or outer side, 2 acyl side, 3 side chain; linkers in the order of their positions; H or OH if unused. Non-standard residues stand in square brackets, D forms with d. Groups on a side chain read outwards from the residue. *: point of attachment. C20 diacid = O=C(O)CCCCCCCCCCCCCCCCCCC(=O)*; C18 diacid = O=C(O)CCCCCCCCCCCCCCCCC(=O)*; γGlu = O=C(O)[C@H](CCC(=O)[*:2])N[*:1]; εLys = N[C@@H](CCCCN[*:1])C(=O)[*:2]; 4Pal = N[C@@H](Cc1ccncc1)C(=O)O; αMeL = CC(C)C[C@](C)(N)C(=O)O; Orn = NCCC[C@H](N)C(=O)O; AEEA = NCCOCCOCC(=O)O; Aib = CC(C)(N)C(=O)O
OBSERVATION_TYPE: Internalization % TOP (%)
Use % as the unit, but write only the number.

So, H-Y[Aib]QGTFTSDYSI[αMeL]LDKQAAK([εLys-εLys-γGlu-C20 diacid])QFVEWLLA[Aib]GPSSGEPPPSEG-NH2 [Example 329] ? Its Internalization % TOP was 91.1

So, H-Y[Aib]QGTFTSDFSR[αMeL]LDKK([AEEA-γGlu-C20 diacid])AQ[Aib]AFIEYLLE[Aib]GPSSGAPPPGGS-NH2 [Example 42] ? Its Internalization % TOP was 58.3

So, H-Y[Aib]QGTFTSDFS[Orn][αMeL]LDKK([AEEA-γGlu-C18 diacid])AQ[Aib]AFIEYLLE[Aib]GPSSG[Aib]PPPSGS-NH2 [Example 239] ? Its Internalization % TOP was 42.9

So, H-Y[Aib]QGTFTSD[4Pal]SR[αMeL]LDKK([AEEA-γGlu-C18 diacid])AQ[Aib]AFIEYLLE[Aib]GESSGAPPPSGS-NH2 [Example 132] ? Its Internalization % TOP was 67.2

So, H-Y[Aib]QGTFTSDFS[Orn][αMeL]LDKK([AEEA-γGlu-C18 diacid])AQ[Aib]AFIEWLLEGGPSSGAPPPEGS-NH2 [Example 121] ? Its Internalization % TOP was 46.3

So, H-Y[Aib]QGTFTSDFS[Orn][αMeL]LDKK([AEEA-γGlu-γGlu-C18 diacid])AQ[Aib]AFIEYLLE[Aib]GPSSGAPPPSGS-NH2 [Example 192] ? Its Internalization % TOP was 48.7
